B1: Azoarcus group I ribozyme (parent)
chain: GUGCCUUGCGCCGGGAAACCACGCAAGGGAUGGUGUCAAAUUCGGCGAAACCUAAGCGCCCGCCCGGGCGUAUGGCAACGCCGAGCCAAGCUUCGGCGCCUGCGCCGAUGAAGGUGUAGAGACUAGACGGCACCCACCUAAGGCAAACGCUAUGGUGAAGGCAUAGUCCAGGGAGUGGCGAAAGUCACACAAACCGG

Variants of: B1
Assay: reverse-splicing fitness (ratio to wild type); higher = more active; in vitro selection; Mg2+ level not given
test readout: reverse-splicing fitness
Would you mind answering with just the numeric figure?

variant spec	reverse-splicing fitness
C82U A111U A145C C150A C169A U176A	0.00998
A111U A120C A145G C150U C169G	0.00992
C82A A111G A120C C150A C169G	0.00973
A111U A120C A145U C150U C169G U176C	0.0102

Turning to the following variant.
Prompt: Param item = C82A A111C A120C A145U C150G C169A ; retrieve measured reverse-splicing fitness.
Completion: 0.00977
